assay: Membrane permeability via fraction of successful printing attempts inside GUVs over time; conditions: not told
reported_endpoint: Papp at 12 mg mL-1 (×10⁻⁶ cm/s)
# output: bare number, implied unit ×10⁻⁶ cm/s

In: For the molecule Cc1cc(C)c(C(=O)P(=O)([O-])c2ccccc2)c(C)c1.[Li+] , give its measured Papp at 12 mg mL-1 value.
Out: 0.0987
